# System: HepG2
# Assay details: cytotoxicity call (relative viability < 0.9)
# Conditions: 10 µM
The whole screen tested about 39,000 compounds, of which about 3,300 (8.5%) were called active. The sample as a whole holds a higher share of actives than the screen did.
Outcome codes: Y = active, N = inactive

Molecule smiles | Target entity | Label class
COc1ccc(NC(=O)Nc2ccc3c(c2)C(=O)N([C@H](C)CO)C[C@H](C)[C@H](CN(C)C(=O)Nc2ccccc2)OCCCC[C@@H](C)O3)cc1 | HepG2 | N
COc1ccc(CN(C)C[C@@H]2OCCCC[C@H](C)Oc3ccc(NC(=O)C4CCCCC4)cc3C(=O)N([C@@H](C)CO)C[C@H]2C)cc1 | HepG2 | Y
C[C@@H]1CCCCO[C@H](CN(C)S(=O)(=O)c2cccs2)[C@H](C)CN([C@@H](C)CO)C(=O)c2cc(NC(=O)CCC(F)(F)F)ccc2O1 | HepG2 | N
COc1ccc(CN(C)C[C@@H]2OCCCC[C@H](C)Oc3ccc(NC(=O)Nc4ccc(OC)cc4)cc3C(=O)N([C@H](C)CO)C[C@H]2C)cc1 | HepG2 | N
COc1ccc(CN(C)C[C@@H]2OCCCC[C@@H](C)Oc3ccc(NC(=O)C4CCCCC4)cc3C(=O)N([C@H](C)CO)C[C@@H]2C)cc1 | HepG2 | N
COc1ccc(CN(C)C[C@H]2OCCCC[C@@H](C)Oc3ccc(NC(=O)C4CCCCC4)cc3C(=O)N([C@H](C)CO)C[C@H]2C)cc1 | HepG2 | N

* * *

# Tested on: HepG2
# Assay details: cytotoxicity call (relative viability < 0.9)
# Conditions: 10 µM
The whole screen tested about 39,000 compounds, of which about 3,300 (8.5%) were called active. The sample as a whole holds a higher share of actives than the screen did.
Recorded endpoint: cytotoxicity call

Molecule smiles | Value reported
CN(C)Cc1cn(CC[C@H]2CC[C@@H](NC(=O)Cc3cccnc3)[C@@H](CO)O2)nn1 | inactive
C[C@H]1O[C@@H](OC(=O)[C@]23CCC(C)(C)C[C@H]2C2=CC[C@H]4[C@@]5(C)CC[C@H](O[C@@H]6O[C@H](C(=O)O)[C@@H](O)[C@H](O[C@@H]7OC[C@@H](O)[C@H](O)[C@H]7O)[C@H]6O[C@@H]6O[C@H](CO)[C@H](O)[C@H](O)[C@H]6O)[C@@](C)(C=O)[C@@H]5CC[C@@]4(C)[C@]2(C)C[C@H]3O)[C@H](O[C@H]2O[C@@H](CO)[C@@H](O)[C@@H](O)[C@@H]2O)[C@@H](O)[C@H]1O[C@@H]1O[C@H](C)[C@@H](O[C@H]2OC[C@@H](O)[C@@H](O)[C@@H]2O)[C@H](O)[C@@H]1O | inactive
COc1ccccc1C#Cc1ccc2c(c1)O[C@@H](CN(C)C(C)=O)[C@@H](C)CN([C@@H](C)CO)S2(=O)=O | inactive
O=c1nc(C(F)(F)F)[nH]c2nc[nH]c12 | inactive
CC1(C)CC[C@]2(C(=O)O[C@@H]3O[C@H](CO)[C@@H](O)[C@H](O)[C@H]3O)CC[C@]3(C)C(=CC[C@H]4[C@@]5(C)CC[C@@H](O[C@@H]6O[C@H](C(=O)O)[C@@H](O[C@@H]7OC[C@@H](O)[C@H](O)[C@H]7O)[C@H](O[C@@H]7OC[C@](O)(CO)[C@H]7O)[C@H]6O)C(C)(C)[C@@H]5CC[C@]43C)[C@@H]2C1 | inactive
Cc1ccc(S(=O)(=O)N2C[C@H](O)COC[C@@H]3O[C@@H](CC(=O)N4CCc5ccccc5C4)CC[C@H]32)cc1 | inactive
C[C@H](CO)N1C[C@H](C)[C@H](CN(C)C(=O)CN(C)C)Oc2ncc(C#CC(C)(C)O)cc2C1=O | inactive
C[C@H](CO)N1C[C@H](C)[C@H](CN(C)C(=O)c2ccncc2)OCCCC[C@H](C)Oc2ccc(NS(=O)(=O)c3ccc(Cl)cc3)cc2C1=O | inactive
C[C@@H]1O[C@@H](O[C@@H]2[C@@H](O)[C@@H](O[C@@H]3O[C@@H](CO)[C@H](O)[C@H]3O)[C@H](OC(=O)[C@]34CCC(C)(C)C[C@H]3C3=CC[C@H]5[C@@]6(C)C[C@H](O)[C@H](O[C@@H]7O[C@@H](C)[C@H](O)[C@@H](O[C@@H]8OC[C@@H](O)[C@H](O)[C@H]8O[C@@H]8O[C@H](CO)[C@@H](O)[C@H](O)[C@H]8O)[C@H]7O)[C@@](C)(CO)[C@@H]6CC[C@@]5(C)[C@]3(C)C[C@H]4O)O[C@H]2C)[C@H](O)[C@H](O)[C@H]1O | active
COc1ccccc1CN1C(=O)c2ccccc2[C@](Cc2ccccc2I)(C(=O)NC2CC2)[C@@H]1c1ccc(CO)cc1 | active
C[C@@H]1CN([C@@H](C)CO)C(=O)c2cc(NC(=O)Cn3cnnn3)ccc2O[C@H]1CN(C)S(=O)(=O)c1cn(C)cn1 | inactive
Cc1ccc(S(=O)(=O)Nc2ccc3c(c2)C(=O)N([C@H](C)CO)C[C@H](C)[C@H](CN(C)C(=O)Nc2ccc4c(c2)OCO4)OCCCC[C@H](C)O3)cc1 | active
COC(=O)c1[nH]c(C(=O)OC)c(O)c1O | inactive
C[C@H]1CN([C@@H](C)CO)C(=O)c2cccc(NC(=O)Nc3ccccc3)c2O[C@@H]1CN(C)Cc1ccc(C(F)(F)F)cc1 | inactive
C[C@@H]1O[C@H](O[C@H]2[C@H](OC(=O)[C@]34CCC(C)(C)C[C@@H]3C3=CC[C@@H]5[C@@]6(C)CC[C@H](O[C@@H]7O[C@@H](C)[C@H](O[C@@H]8OC[C@@H](O)[C@H](O)[C@H]8O)[C@@H](O)[C@H]7O)C(C)(C)[C@@H]6CC[C@@]5(C)[C@]3(C)C[C@@H]4O)OC[C@H](O)[C@H]2O)[C@H](O)[C@H](O)[C@H]1O[C@@H]1O[C@H](CO)[C@@H](O)[C@H](O)[C@H]1O | inactive
C[C@@H]1O[C@@H](O[C@@H]2CC[C@@]3(C)[C@@H](CC[C@]4(C)[C@@H]3CC=C3[C@@H]5CC(C)(C)CC[C@]5(C(=O)O[C@@H]5O[C@H](CO[C@@H]6O[C@H](CO)[C@@H](O)[C@H](O)[C@H]6O)[C@@H](O)[C@H](O)[C@H]5O)CC[C@]34C)[C@]2(C)CO)[C@H](O)[C@H](O[C@@H]2OC[C@@H](O)[C@H](O)[C@H]2O)[C@H]1O | inactive
COc1ccc(S(=O)(=O)Nc2ccc3c(c2)C(=O)N([C@@H](C)CO)C[C@@H](C)[C@@H](CN(C)C(=O)Nc2ccc4c(c2)OCO4)OCCCC[C@@H](C)O3)cc1 | active
C[C@H](CO)N1C[C@H](C)[C@@H](CN(C)C(=O)Cc2ccccc2)OCCCC[C@H](C)Oc2ccc(NC(=O)Nc3ccc4c(c3)OCO4)cc2C1=O | inactive
C[C@H](CO)N1C[C@H](C)[C@@H](CN(C)C(=O)Nc2ccccc2)Oc2ccc(NC(=O)CCCCCC(=O)Nc3ccccc3N)cc2CC1=O | inactive
